Biological target: UniProt P46098
Sequence (P46098 24-478): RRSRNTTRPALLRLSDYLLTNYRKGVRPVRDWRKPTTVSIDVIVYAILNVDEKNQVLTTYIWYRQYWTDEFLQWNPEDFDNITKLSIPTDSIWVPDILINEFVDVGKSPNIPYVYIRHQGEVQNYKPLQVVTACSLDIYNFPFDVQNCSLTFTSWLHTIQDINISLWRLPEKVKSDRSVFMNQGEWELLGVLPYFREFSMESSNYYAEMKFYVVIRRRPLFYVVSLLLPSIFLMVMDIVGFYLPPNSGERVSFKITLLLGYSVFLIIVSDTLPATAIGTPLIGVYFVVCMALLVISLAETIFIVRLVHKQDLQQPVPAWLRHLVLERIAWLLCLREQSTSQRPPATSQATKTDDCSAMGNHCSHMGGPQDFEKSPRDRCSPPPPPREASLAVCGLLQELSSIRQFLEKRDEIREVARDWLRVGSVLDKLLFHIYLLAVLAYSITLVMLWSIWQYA
Test: Two-electrode voltage-clamp: modulation of 5-HT-induced currents at 5-HT3A receptors heterologously expressed in Xenopus laevis oocytes
Format: cell-based
Set-up: key: c, apparently competitive; nc, non-competitive
Settings: from comparison of inhibition at 2.5 and 30 μM 5-HT

compound	mode of antagonism
O=C1C[C@@H](c2ccc(O)cc2)Oc2cc(O)ccc21 [(-)-liquiritigenin]	^*/nc
C=C1CCC[C@]2(C)C[C@]3(O)OC(=O)C(C)=C3C[C@@H]12 [Atractylenolide III, atractylenolide III]	ns/nc
COc1ccc([C@@H]2CC(=O)c3c(O)cc(O)cc3O2)cc1O	ns/nc
C=CC(C)(C)c1cc(/C=C/C(=O)c2ccc(O)cc2)c(OC)cc1O	^*/c
COc1cc2c3cc1Oc1cc(ccc1O)C[C@@H]1c4c(cc(OC)c(O)c4Oc4ccc(cc4)C[C@@H]3N(C)CC2)CC[N+]1(C)C [D-tubocurarine, d-tubocurarine, reference compound]	^**/c
Cc1nccn1CC1CCc2c(c3ccccc3n2C)C1=O (stereo not shown) [Ondansetron, ondansetron, reference compound]	^*/c

The values you see were collected from paper PMC4490227.
